All figures here come from the supplement of paper PMC10307832.

System: LOU-NH91
experiment description: relative viability (nuclei count vs DMSO), 5 days (fraction); higher = more cells survive
condition details: first compound 2.53 µM
Values of relative viability strictly less than 0.8 map to Condition met, and values of at least 0.8 map to Condition not met.

compound	discrete label
CCCCCCCCCCCC1=C(O)C(=O)C=C(O)C1=O [Embelin] + O=C(CCCCCCC(=O)Nc1ccccc1)NO [Vorinostat] (partner 1 µM)	Condition not met
CCCCCCCCCCCC1=C(O)C(=O)C=C(O)C1=O [Embelin] + O=C(c1cc(Cc2n[nH]c(=O)c3ccccc23)ccc1F)N1CCN(C(=O)C2CC2)CC1 [Olaparib] (partner 8 µM)	Condition not met
CCCCCCCCCCCC1=C(O)C(=O)C=C(O)C1=O [Embelin] + CC(=O)Nc1cccc(-n2c(=O)n(C3CC3)c(=O)c3c(Nc4ccc(I)cc4F)n(C)c(=O)c(C)c32)c1 [Trametinib] (partner 0.02 µM)	Condition not met
CCCCCCCCCCCC1=C(O)C(=O)C=C(O)C1=O [Embelin] + N=C(N)NC(=N)NCCc1ccccc1 [Phenformin] (partner 250 µM)	Condition met
CCCCCCCCCCCC1=C(O)C(=O)C=C(O)C1=O [Embelin] + COc1cc2c(Oc3ccc(NC(=O)C4(C(=O)Nc5ccc(F)cc5)CC4)cc3F)ccnc2cc1OCCCN1CCOCC1 [Foretinib] (partner 0.25 µM)	Condition not met
CCCCCCCCCCCC1=C(O)C(=O)C=C(O)C1=O [Embelin] + Cc1cc(Nc2cc(N3CCN(C)CC3)nc(Sc3ccc(NC(=O)C4CC4)cc3)n2)n[nH]1 [Tozasertib] (partner 0.1 µM)	Condition met

Would you kindly look at the next entry?
Prompt line: # TODO verify relative viability < 0.8 strictly for this compound: CCCCCCCCCCCC1=C(O)C(=O)C=C(O)C1=O [Embelin] + Cc1nc(NC(=O)N2CCC[C@H]2C(N)=O)sc1-c1ccnc(C(C)(C)C(F)(F)F)c1 [Alpelisib] (partner 2 µM)
Response line: Condition not met
